# Tested on: GST-tagged Cn
# test method notes: PEPperPRINT peptide microarray binding assay with GST-tagged Cn
# condition parameters: max over the spots listed under Location on chip
parameter measured: Chip Fluorescence (max)
Please state the value as a number alone, without comment.

Guide cases for Chip Fluorescence (max), answers given:
1) AAGAGVGIVITVTEAE [SeqRBMlowT_180] ... 3.317
2) RAYINPFMTFTDGGRR [SeqRBMlowT_3400] ... 3.064
3) LMVSPPEITISPAELH [SeqRBM_5585] ... 3.353

Q: Quick check: Chip Fluorescence (max) on GST-tagged Cn, item RQGAGPILVLEGHWDA [SeqRBM_4400] ?
A: 3.288

Q: Short answer please: Chip Fluorescence (max), GST-tagged Cn, entry TFWTNPQFRITLEDVD [SeqRBMlowT_966]
A: 2.9488
